target: IspB protein (Escherichia coli (strain 55989 / EAEC)); assay: Fluorescent Assay
Sequence (B7LHQ0 whole entry): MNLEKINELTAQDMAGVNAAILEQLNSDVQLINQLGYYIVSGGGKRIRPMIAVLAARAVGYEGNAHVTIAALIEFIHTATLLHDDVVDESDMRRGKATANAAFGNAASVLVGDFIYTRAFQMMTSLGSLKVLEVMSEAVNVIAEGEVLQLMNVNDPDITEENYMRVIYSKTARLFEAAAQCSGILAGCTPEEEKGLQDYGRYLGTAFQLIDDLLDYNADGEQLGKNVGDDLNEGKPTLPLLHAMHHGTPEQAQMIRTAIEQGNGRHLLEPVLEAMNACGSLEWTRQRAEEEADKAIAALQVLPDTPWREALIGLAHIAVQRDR
PARAMETER: IC50

{"STRUCTURE": "O=P(O)(O)C(O)(Cn1ccnc1)P(=O)(O)O", "RECORDED_MEASUREMENT": "220 nM"}
